Molecular target: IRAK4 (Homo sapiens, UniProt Q9NWZ3)
Construct: Effect of the Compounds on IRAK4 Protein Degradation in THP1 Cells; endogenous in cells; host or cells: THP-1 cells
Sequence (Q9NWZ3 1-460): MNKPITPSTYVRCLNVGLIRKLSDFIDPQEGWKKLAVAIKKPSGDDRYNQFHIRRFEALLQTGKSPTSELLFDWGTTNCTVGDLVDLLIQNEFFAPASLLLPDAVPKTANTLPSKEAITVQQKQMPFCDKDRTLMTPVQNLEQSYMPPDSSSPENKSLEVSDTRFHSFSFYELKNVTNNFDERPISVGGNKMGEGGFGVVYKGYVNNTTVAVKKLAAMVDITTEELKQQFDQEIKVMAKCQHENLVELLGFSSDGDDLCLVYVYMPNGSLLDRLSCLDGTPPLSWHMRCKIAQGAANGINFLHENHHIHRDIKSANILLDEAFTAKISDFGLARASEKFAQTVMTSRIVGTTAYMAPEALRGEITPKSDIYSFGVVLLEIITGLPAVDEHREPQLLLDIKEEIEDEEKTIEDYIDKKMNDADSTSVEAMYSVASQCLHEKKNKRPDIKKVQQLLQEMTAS
Experiment: IRAK4 protein degradation in THP1 cells (Western blot)
Assay type: cell-based
Conditions: THP-1 cells, 24 h
Readout type: DC50 (nM)

CN(C)c1cc2nn([C@H]3CC[C@H](CN4CC[C@H](n5cc6cc(C7CCC(=O)NC7=O)ccc6n5)[C@@H](F)C4)CC3)cc2cc1NC(=O)c1cnn2cccnc12 (stereo partly shown)    1.78

a = CN(C)c1cc2nn([C@H]3CC[C@H](CN4CC[C@H](n5cc6ccc(N7CCC(=O)NC7=O)cc6n5)C4)CC3)cc2cc1NC(=O)c1cnn2cccnc12
b = CN(C)c1cc2nn([C@H]3CC[C@H](CN4C[C@@H](F)[C@H](n5cc6cc(C7CCC(=O)NC7=O)c(F)cc6n5)C4)CC3)cc2cc1NC(=O)c1cnn2cccnc12 (stereo partly shown)
c = CN(C)c1cc2nn([C@H]3CC[C@H](CN4CCC(N5Cc6ccc(N7CCC(=O)NC7=O)cc6C5=O)CC4)CC3)cc2cc1NC(=O)c1cnn2cccnc12
### Prompt Form: Sort by [DC50] Order [ ascending ] Output the labels ranked as instructed.
### Response b, a, c

Each recorded value in this set is attributed to patent US20260216348A1.
